# Tested on: giant foxtail (Setaria faberii)
# assay: Test C
# Assay type: in vivo
# Parameters: key: 0 was no effect; 100 was complete control
# conditions: PREEMERGENCE, Rate 35 g/ha
endpoint: Plant response rating, Giant foxtail
In your answer, state the number alone without any accompanying words.

molecule=Cc1cnc(-n2ccc(C(F)(F)F)n2)nc1C(=O)c1cccc(OC(F)(F)F)c1 target_desc="giant foxtail (Setaria faberii)" observed=0
molecule=Cc1cnc(-c2ccc(C(F)(F)F)cc2)nc1Cc1cccc(OC(F)(F)F)c1 target_desc="giant foxtail (Setaria faberii)" observed=70
molecule=COc1cnc(-c2ccc(C(F)(F)F)cc2)nc1Cc1cccc(C(F)(F)F)c1 target_desc="giant foxtail (Setaria faberii)" observed=85
molecule=Cc1cnc(-c2ccc(C(F)(F)F)cc2)nc1Cn1ccc(C(F)(F)F)n1 target_desc="giant foxtail (Setaria faberii)" observed=90

Query :: Query Plant response rating, Giant foxtail on giant foxtail (Setaria faberii) for CCc1cnc(-n2ccc(C(F)(F)F)n2)nc1Cc1cccc(C(F)(F)F)c1
Result :: 100

Query :: Query Plant response rating, Giant foxtail on giant foxtail (Setaria faberii) for Cc1cnc(-c2ccc(C(F)(F)F)cc2)nc1C(Cl)c1cccc(C(F)(F)F)c1 (racemic)
Result :: 85

Query :: Query Plant response rating, Giant foxtail on giant foxtail (Setaria faberii) for Cc1cnc(-n2ccc(C(F)(F)F)n2)nc1Cn1ccc(C(F)(F)F)n1
Result :: 70

The reported numbers originate from patent US6525001B1.
